Molecular target: Maltase-glucoamylase (Homo sapiens)
Sequence (O43451 whole entry): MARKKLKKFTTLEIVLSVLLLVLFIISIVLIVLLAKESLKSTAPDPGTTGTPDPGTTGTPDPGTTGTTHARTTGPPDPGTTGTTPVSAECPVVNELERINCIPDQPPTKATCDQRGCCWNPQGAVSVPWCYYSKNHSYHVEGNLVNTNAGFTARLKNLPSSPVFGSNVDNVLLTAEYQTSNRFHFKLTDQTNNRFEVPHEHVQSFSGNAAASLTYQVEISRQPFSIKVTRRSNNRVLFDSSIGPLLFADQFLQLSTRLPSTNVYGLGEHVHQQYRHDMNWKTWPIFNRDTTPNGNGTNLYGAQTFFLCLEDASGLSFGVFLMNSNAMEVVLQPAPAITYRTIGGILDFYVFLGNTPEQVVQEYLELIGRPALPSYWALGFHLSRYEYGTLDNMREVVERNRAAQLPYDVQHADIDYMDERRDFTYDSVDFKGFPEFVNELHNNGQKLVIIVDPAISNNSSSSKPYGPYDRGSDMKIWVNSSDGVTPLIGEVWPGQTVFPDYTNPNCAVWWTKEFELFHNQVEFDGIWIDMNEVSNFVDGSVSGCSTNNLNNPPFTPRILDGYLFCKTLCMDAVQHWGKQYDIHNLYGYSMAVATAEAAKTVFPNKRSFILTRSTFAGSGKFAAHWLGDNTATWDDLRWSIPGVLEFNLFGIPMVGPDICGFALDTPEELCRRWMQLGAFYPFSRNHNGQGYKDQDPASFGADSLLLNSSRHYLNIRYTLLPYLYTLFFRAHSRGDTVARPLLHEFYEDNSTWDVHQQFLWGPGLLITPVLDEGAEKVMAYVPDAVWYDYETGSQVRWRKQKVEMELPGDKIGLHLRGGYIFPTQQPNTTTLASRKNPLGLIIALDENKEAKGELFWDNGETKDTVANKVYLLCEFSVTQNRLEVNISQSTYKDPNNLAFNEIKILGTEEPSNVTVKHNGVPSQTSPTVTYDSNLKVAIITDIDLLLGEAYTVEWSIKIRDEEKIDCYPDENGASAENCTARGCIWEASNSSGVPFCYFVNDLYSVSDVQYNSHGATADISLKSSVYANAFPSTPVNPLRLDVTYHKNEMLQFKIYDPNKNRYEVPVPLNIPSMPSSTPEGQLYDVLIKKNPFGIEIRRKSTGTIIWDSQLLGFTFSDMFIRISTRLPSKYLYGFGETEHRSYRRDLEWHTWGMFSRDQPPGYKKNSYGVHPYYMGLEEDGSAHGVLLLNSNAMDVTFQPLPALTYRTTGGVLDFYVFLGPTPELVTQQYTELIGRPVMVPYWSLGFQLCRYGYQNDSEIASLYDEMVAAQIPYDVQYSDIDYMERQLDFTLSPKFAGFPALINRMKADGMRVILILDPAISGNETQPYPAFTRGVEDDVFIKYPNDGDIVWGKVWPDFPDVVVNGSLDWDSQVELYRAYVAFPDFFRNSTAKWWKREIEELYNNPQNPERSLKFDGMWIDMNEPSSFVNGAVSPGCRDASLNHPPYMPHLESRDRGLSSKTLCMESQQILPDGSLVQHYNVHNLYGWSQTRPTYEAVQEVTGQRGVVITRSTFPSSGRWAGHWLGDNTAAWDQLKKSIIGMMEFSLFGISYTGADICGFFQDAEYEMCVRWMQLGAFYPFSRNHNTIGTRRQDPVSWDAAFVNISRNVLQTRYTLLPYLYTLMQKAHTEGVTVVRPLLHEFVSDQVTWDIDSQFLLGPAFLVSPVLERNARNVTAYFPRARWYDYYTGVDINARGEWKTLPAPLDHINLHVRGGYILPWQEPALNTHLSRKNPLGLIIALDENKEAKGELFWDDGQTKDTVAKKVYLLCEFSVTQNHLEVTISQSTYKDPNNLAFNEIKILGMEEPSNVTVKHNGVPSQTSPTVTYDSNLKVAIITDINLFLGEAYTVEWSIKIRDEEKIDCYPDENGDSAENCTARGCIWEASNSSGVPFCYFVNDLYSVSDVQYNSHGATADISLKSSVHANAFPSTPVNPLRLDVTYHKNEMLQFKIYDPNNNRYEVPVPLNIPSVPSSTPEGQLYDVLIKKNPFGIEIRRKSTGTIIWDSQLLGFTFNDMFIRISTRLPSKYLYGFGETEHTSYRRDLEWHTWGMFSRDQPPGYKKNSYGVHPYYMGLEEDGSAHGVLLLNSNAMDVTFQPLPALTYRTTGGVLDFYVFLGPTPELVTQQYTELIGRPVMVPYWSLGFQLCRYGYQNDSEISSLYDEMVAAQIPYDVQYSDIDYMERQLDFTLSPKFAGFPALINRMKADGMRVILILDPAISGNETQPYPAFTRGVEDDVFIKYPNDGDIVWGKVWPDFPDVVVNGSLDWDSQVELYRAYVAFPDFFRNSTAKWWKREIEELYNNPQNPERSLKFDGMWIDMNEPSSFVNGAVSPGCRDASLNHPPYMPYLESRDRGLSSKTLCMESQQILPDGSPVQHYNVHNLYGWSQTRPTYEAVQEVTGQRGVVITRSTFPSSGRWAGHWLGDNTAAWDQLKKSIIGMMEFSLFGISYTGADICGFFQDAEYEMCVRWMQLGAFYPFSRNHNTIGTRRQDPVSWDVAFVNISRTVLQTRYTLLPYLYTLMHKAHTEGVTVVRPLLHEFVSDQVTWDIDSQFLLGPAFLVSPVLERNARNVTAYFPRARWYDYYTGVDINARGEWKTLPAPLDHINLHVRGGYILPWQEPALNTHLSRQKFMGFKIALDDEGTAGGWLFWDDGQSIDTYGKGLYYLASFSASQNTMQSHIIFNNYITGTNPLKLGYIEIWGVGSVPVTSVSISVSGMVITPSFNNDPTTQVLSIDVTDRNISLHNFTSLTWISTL
Assay: Inhibition of human intestinal maltase using maltose as substrate incubated for 30 mins and immediately heated for 2 mins by glucose oxidase method
Type: tissue-based, Intestine
RESULT TYPE: IC50 (µM)

>>> print(df.to_string())
                            compound_smiles  result_type  scale_unit  result
0  [O-][C@@H](CO)[C@H](O)C[S@+]1C[C@@H](O)[C@H](O)[C@H]1CO         IC50          µM       9

###

# key: entry, value: IC50
Assay: Inhibition of rat intestinal isomaltase using isomaltose as substrate incubated for 30 mins and immediately heated for 2 mins by glucose oxidase method
Type: tissue-based, Intestine
RESULT TYPE: IC50

                                   compound   result
0  [O-][C@@H](CO)[C@H](O)C[S@+]1C[C@@H](O)[C@H](O)[C@H]1CO [NEOSALACINOL]   300 nM
1  O=S(=O)([O-])O[C@@H](CO)[C@H](O)C[S@+]1C[C@@H](O)[C@H](O)[C@H]1CO [SALACINOL]  1300 nM
